Molecular target: UniProt O42713
Sequence (O42713 whole entry): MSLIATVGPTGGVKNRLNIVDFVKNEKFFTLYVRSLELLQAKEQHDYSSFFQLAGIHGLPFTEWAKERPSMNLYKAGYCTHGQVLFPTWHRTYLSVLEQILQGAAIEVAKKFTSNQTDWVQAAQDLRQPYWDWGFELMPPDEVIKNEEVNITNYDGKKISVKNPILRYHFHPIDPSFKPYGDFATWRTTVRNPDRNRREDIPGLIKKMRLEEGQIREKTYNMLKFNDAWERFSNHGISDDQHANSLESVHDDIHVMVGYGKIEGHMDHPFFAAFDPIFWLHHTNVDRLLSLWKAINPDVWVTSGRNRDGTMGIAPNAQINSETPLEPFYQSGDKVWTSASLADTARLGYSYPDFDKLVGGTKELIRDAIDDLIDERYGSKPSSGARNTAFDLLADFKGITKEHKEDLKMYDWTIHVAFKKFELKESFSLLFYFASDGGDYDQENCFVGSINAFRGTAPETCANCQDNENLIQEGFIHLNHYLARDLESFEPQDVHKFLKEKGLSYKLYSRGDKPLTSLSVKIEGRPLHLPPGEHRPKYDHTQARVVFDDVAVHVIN
Assay: Activation of mushroom tyrosinase using L-tyrosine as substrate preincubated for 5 mins followed by substrate addition measured after 30 mins by ELISA
Measured EC50, listed per entry.
Express your answer in µM, writing the number without its unit.

Some solved entries appear below for comparison.
>>> print(df.to_string())
                            structuresmiles  endpointresult
0  COc1ccc(-c2cc(COc3ccc(C(=O)/C=C/c4ccccc4)cc3)on2)cc1            47.2
1  Cc1ccc(S(=O)(=O)Nc2ccc(C(=O)/C=C/c3ccc(Cl)cc3)cc2)cc1            25.8
2    Nc1nc2ccc(C(=O)/C=C/c3ccc(Cl)cc3)cc2s1            30.6
3  O=C(/C=C/c1ccccc1)c1ccc(OCc2cc(-c3ccc(Cl)cc3)no2)cc1             8.1
4  O=C(/C=C/c1ccccc1)c1ccc(CCc2cn(Cc3ccc(Cl)c(Cl)c3)nn2)cc1            1.71
5  O=C(/C=C/c1ccccc1)c1ccc(OCc2cc(-c3ccc(Cl)c(Cl)c3)no2)cc1             2.5

Task item: Look at this compound and give its reported EC50. "O=C(/C=C/c1ccccc1)c1ccc(OCc2cc(-c3ccc(I)o3)no2)cc1"
Reply: 11.4

Task item: Look at this compound and give its reported EC50. "COc1ccccc1-c1cc(COc2ccc(C(=O)/C=C/c3ccccc3)cc2)on1"
Reply: 65.3

Task item: Look at this compound and give its reported EC50. "O=C(/C=C/c1ccccc1)c1ccc(OCc2cc(-c3cc(Cl)cc(Cl)c3)no2)cc1"
Reply: 12.7

Task item: Look at this compound and give its reported EC50. "O=C(/C=C/c1ccccc1)c1ccc(CCc2cn(Cc3cccc(F)c3)nn2)cc1"
Reply: 5.6

Task item: Look at this compound and give its reported EC50. "O=C(/C=C/c1ccccc1)c1ccc(OCc2cc(-c3ccccc3)no2)cc1"
Reply: 78.1

Task item: Look at this compound and give its reported EC50. "O=C(/C=C/c1ccc(Cl)cc1)c1ccc2nc(NC(=O)c3ccccc3)sc2c1"
Reply: 9.6
